EXPERIMENT_NOTES: Caspase-3/7 induction in CHO-K1 cells by small molecules, qHTS assay (AID 1346980); note: nearly all actives have a fitted effect of over 15% in size
RUN_CONDITIONS: CHO-K1 caspase-3/7 induction, Caspase-Glo luminescence, 17 h; series mostly up to 92.4 µM
Active and inactive are the calls of the source. Calls come from the whole dose curve; as a rule, active = well fitted activation curve with a large enough effect in the repeat runs; inconclusive = weak or mixed curves; inactive = flat fitted curve, though single readings scatter.
Permitted responses: active, inactive

Here's what some known entries look like.
MOLECULE | CLASS_ASSIGNMENT
Nc1ccc(Cl)c([N+](=O)[O-])c1 | inactive
[Cl][Sc]([Cl])[Cl] | inactive
NC(=O)C1CO1 (centres undefined) | inactive
COc1ccc(OC)c(N=Nc2c(O)ccc3ccccc23)c1 | inactive
O=[N+]([O-])c1ccc(O)c2ncccc12 | active

Outcome logged for `N#CCCOCCC#N` in this assay:
inactive

# outcome recorded in this test, key = `Nc1cc([N+](=O)[O-])ccc1Cl`
inactive

In this assay, the call recorded for `O=C(N[C@H](CO)[C@H](O)c1ccc([N+](=O)[O-])cc1)C(Cl)Cl` was what?
inactive

----------
EXPERIMENT_NOTES: qHTS assay to identify small molecule agonists of the RXR signaling pathway - cell viability counter screen (AID 1159529); note: nearly all actives have a fitted effect of over 50% in size
RUN_CONDITIONS: RXR-alpha-bla HEK293T viability, CellTiter-Glo, 16 h; series mostly up to 76.8 µM
Records with an inconclusive call do not appear. Active and inactive are the calls of the source. Calls follow the shape of the dose curve; as a rule, active = well fitted cell-killing curve with a large enough effect in the repeat runs; inconclusive = weak or mixed curves, or effect the other way; inactive = no such curve, though single readings can be large or run the other way.
Lab note: assign the record to one of active, inactive

Would you please look over these solved cases?
COMPOUND | CLASS_ASSIGNMENT
CCCC(=O)c1cc(O)c(O)cc1O | inactive
C=CC(=O)O[C@H]1C[C@@H]2CC[C@@]1(C)C2(C)C | inactive
C=Cc1ccncc1 | inactive

Recorded call for C=C1C(CCl)(CCl)C2(Cl)C(Cl)C(Cl)C1(Cl)C2(Cl)Cl (centres undefined) ?
active

Just curious, what result did `C=C(C)CCO` get here?
inactive

Check the results log: what was the call for `NC(=O)c1ccccc1Cl` ?
inactive

Lab log entry: `Cc1ccc2nc(-c3ccc(N)cc3)sc2c1S(=O)(=O)O` — outcome as called in the assay?
inactive

Record lookup: outcome of this test for S=C1NC=NC2N=CNC12 (centres undefined) ?
active

I would be grateful if you could indicate the recorded call for `CCN(CC)c1ccc(N=Nc2ccccc2)cc1` .
active

Could you kindly confirm the outcome this assay logged for `Clc1nc(C(Cl)(Cl)Cl)c(Cl)c(Cl)c1Cl` ?
active

----------
EXPERIMENT_NOTES: qHTS assay to identify small molecule antagonists of the thyroid receptor (TR) signaling pathway - cell viability counter screen (AID 743064); note: nearly all actives have a fitted effect of over 50% in size
RUN_CONDITIONS: GH3.TRE-Luc viability, CellTiter-Fluor, 24 h; series mostly up to 70.3 µM
Inconclusive results are not listed. Active and inactive are the calls of the source. Calls come from the whole dose curve; as a rule, active = well fitted cell-killing curve with a large enough effect in the repeat runs; inconclusive = weak or mixed curves, or effect the other way; inactive = no such curve, though single readings can be large or run the other way.

SMILES_STRUCTURE | outcome
C[C@@H]1C[C@H]2[C@@H]3C[C@H](F)C4=CC(=O)C=C[C@]4(C)[C@@]3(Cl)[C@@H](O)C[C@]2(C)[C@H]1C(=O)COC(=O)C(C)(C)C | inactive
O=C1CC[C@@H](C(=O)N[C@H]2C[C@@H]2c2ccccc2)N1 | inactive
CO[C@H]1C[C@H](O[C@H]2[C@H](C)[C@@H](O[C@@H]3O[C@H](C)C[C@H](N(C)C)[C@H]3O)[C@@H](C)C[C@]3(CO3)C(=O)[C@H](C)[C@@H](O)[C@@H](C)[C@@H](C)OC(=O)[C@@H]2C)O[C@@H](C)[C@@H]1O | inactive

----------
SYSTEM_NAME: Aromatase (Homo sapiens) (UniProt P11511)
Sequence (P11511 whole entry, looked up): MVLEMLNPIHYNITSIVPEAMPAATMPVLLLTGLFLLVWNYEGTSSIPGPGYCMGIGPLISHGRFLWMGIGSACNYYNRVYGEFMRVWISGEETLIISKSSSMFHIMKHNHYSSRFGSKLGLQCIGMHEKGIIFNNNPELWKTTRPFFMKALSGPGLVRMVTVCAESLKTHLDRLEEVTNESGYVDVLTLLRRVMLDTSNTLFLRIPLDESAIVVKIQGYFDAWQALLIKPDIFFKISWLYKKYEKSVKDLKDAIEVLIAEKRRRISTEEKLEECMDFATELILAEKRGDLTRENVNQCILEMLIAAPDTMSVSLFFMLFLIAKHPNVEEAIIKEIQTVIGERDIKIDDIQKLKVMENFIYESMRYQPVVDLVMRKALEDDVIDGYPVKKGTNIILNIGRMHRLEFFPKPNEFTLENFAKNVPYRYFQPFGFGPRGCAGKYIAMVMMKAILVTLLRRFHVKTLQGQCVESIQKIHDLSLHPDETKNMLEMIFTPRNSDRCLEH
EXPERIMENT_NOTES: qHTS assay to identify aromatase inhibitors (AID 743083); note: nearly all actives have a fitted effect of over 55% in size
RUN_CONDITIONS: MCF-7 aro ERE, testosterone-driven ERE luciferase, 24 h; series mostly up to 70.3 µM
Results filed as inconclusive are left out. Calls of active or inactive are those of the source. Calls come from the whole dose curve; as a rule, active = well fitted inhibition curve with a large enough effect in the repeat runs; inconclusive = weak or mixed curves; inactive = no such curve, though single readings can be large or run the other way.
Outcomes you can answer with include only these: active, inactive

Solved entries:
COMPOUND | CLASS_ASSIGNMENT
C=CC1=C(C(=O)O)N2C(=O)[C@@H](NC(=O)/C(=N\O)c3csc(N)n3)[C@H]2SC1 (stereo in doubt) | inactive
CC(=NCc1ccccc1)c1ccccc1O | inactive
O=C(O)/C=C/C(O)c1ccc(Cl)cc1 (centres undefined) | inactive
O=C(O)/C=C/C(=O)Nc1ccc(S(=O)(=O)Nc2nccs2)cc1 | inactive
CC(C)c1ncc([N+](=O)[O-])n1C | inactive

Assay result, entry `CN=C(N)NCCC[C@H](N)C(=O)O` — outcome?
inactive

Could you please tell me the result logged for `CC(C)(S)C(=O)N[C@@H](CS)C(=O)O` in this assay?
inactive

----------
EXPERIMENT_NOTES: qHTS assay for small molecule agonists of the antioxidant response element (ARE) signaling pathway - cell viability counter screen (AID 743203); note: nearly all actives have a fitted effect of over 55% in size
RUN_CONDITIONS: ARE-bla HepG2 viability, CellTiter-Glo luminescence, 16 h; series mostly up to 73.3 µM
Results filed as inconclusive are left out. Calls of active or inactive are those of the source. The call rests on the fitted dose curve.
Permitted responses: active, inactive

See these solved cases before continuing.
MOLECULE | CLASS_ASSIGNMENT
O=C1OC(O)C(C(Cl)Cl)=C1Cl (stereo unspecified) | inactive
O=C(CCCCCCCCc1cccnc1)N1CCC(C=C(c2ccccc2)c2ccccc2)CC1 | active
CN[C@H]1CC[C@@H](c2ccc(Cl)c(Cl)c2)c2ccc(S(N)(=O)=O)cc21 | active

Lab log entry: `NCc1cccc(C2CCN(C(=O)c3ccc(C#Cc4ccccc4F)o3)CC2)c1` — outcome as called in the assay?
active

Which outcome was entered for the molecule `SC1CCCCC1` in this test?
inactive

Assay result, entry `CCCCCCCCCCCCCCCCCCNC(=O)OC1CCN(C(=O)OC[C@H](COC(=O)N(Cc2cccc[n+]2CC)C(=O)c2ccccc2OC)OC)CC1` — outcome?
active

Any idea what this test logged for `N#Cc1nc(Cl)c(Cl)c(Cl)c1Cl` ?
active

Outcome logged for `c1ccc2cc3c4ccccc4c4ccccc4c3cc2c1` in this assay:
inactive

----------
EXPERIMENT_NOTES: A CellTox Green Cytotoxicity Assay to monitor cytotoxicity in HEK293 cells - 8 hour (AID 1224884); note: nearly all actives have a fitted effect of over 35% in size
RUN_CONDITIONS: CellTox Green fluorescence; series mostly up to 76.8 µM
Records with an inconclusive call do not appear. Activity calls are given as the source filed them. Calls come from the whole dose curve; as a rule, active = well fitted activation curve with a large enough effect in the repeat runs; inconclusive = weak or mixed curves; inactive = flat fitted curve, though single readings scatter.
Outcomes you can answer with include only these: class 1 = active, class 0 = inactive

Reference set (5 entries):
SMILES_STRUCTURE | CLASS_ASSIGNMENT
CC(C)=CCC[C@H](C)CC=O | class 0
N#Cc1nc(Cl)c(Cl)c(Cl)c1Cl | class 0
CC1=C(/C=C/C(C)=C/C=C/C(C)=C\C(=O)O)C(C)(C)CCC1 | class 0
CC(C)(C)C1=CC(=O)C(C(C)(C)C)=CC1=O | class 0
CN(C/C=C/c1ccccc1)Cc1cccc2ccccc12 | class 1

Query: recorded result category for `CN[C@H]1CC[C@@H](c2ccc(Cl)c(Cl)c2)c2ccc(S(N)(=O)=O)cc21` in this test
class 1

----------
EXPERIMENT_NOTES: qHTS assay to identify small molecule agonists of the sonic hedgehog signaling (Shh) pathway (AID 1259368);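 note: NIH/3T3-derived 3T3Gli1-Luc cells carrying a stable Gli1-driven firefly luciferase reporter; nearly all actives have a fitted effect of over 15% in size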
RUN_CONDITIONS: NIH/3T3 Gli1-Luc reporter, luciferase, 24 h; series mostly up to 92.4 µM
The source made the active and inactive calls. Calls come from the whole dose curve.
VALUE_TYPE: activity change

Guide cases for activity change, answers given:
MOLECULE | RESULT
c1ccc2occc2c1 | inactive
Nc1cc([N+](=O)[O-])ccc1Cl | inactive
SC1CCCCC1 | inactive
Nc1ccc(Cl)c([N+](=O)[O-])c1 | inactive
Cc1cc(Br)ccc1NC(=O)CCl | inactive
CN1CCN(CCCN2c3ccccc3Sc3ccc(C(F)(F)F)cc32)CC1 | inactive
Oc1cccc2c(O)cccc12 | inactive
C1CCSC1 | inactive

Query molecule follows.
Give reported activity change value for `Clc1cccc(Cl)n1`
inactive

----------
EXPERIMENT_NOTES: qHTS RealTime-Glo MT Cell Viability Assay in HepG2 cells - 32 hour (AID 1224877); note: nearly all actives have a fitted effect of over 55% in size
RUN_CONDITIONS: RealTime-Glo luminescence; series mostly up to 76.8 µM
Inconclusive results are not listed. Calls of active or inactive are those of the source. Calls come from the whole dose curve; as a rule, active = well fitted cell-killing curve with a large enough effect in the repeat runs; inconclusive = weak or mixed curves; inactive = flat fitted curve, though single readings scatter.
Outcomes you can answer with include only these: active, inactive

COMPOUND | CLASS_ASSIGNMENT
CCCCCCCCSCc1cc(C)c(O)c(CSCCCCCCCC)c1 | inactive
Cc1ccc(C2OC[C@@H]3OC(c4ccc(C)cc4)O[C@H]([C@H](O)CO)[C@@H]3O2)cc1 (some centres not stated) | inactive
Cc1cc(Br)ccc1NC(=O)CCl | active
Cc1ccc2nc(-c3ccc(N)cc3)sc2c1S(=O)(=O)O | inactive
CCCC(=O)c1cc(O)c(O)cc1O | inactive
CN[C@H]1CC[C@@H](c2ccc(Cl)c(Cl)c2)c2ccc(S(N)(=O)=O)cc21 | active
Cc1c[nH]c(=O)[nH]c1=O | inactive
O=C1C=CC(=O)N1c1cccc(N2C(=O)C=CC2=O)c1 | active

I would be grateful if you could indicate the recorded call for CCCC(C)C=O (configuration not stated) .
inactive

Call for entry CCOC(=O)C1=NN(c2ccc(Cl)cc2Cl)C(C)(C(=O)OCC)C1 (configuration not stated) :
inactive

Test call, this compound: `Nc1cc([N+](=O)[O-])cc(Cl)c1O`
inactive

For `COc1c(Br)cc(Br)c(C)c1Br` , which call appears in the assay record?
inactive
